System: CCRF-CEM leukemia cells
Assay: CCRF-CEM ASNase cell proliferation assay, phenotypic assay for cellular inhibition of GCN2
Format: cell-based
Conditions: Homo sapiens; ASNase treated CCRF-CEM cells, 1 mU/mL ASNase, 72 h
quantityKind: IC50

> print(dat)
                                   compound  quantitykind     assayvalue
1  CNc1ncc2cc(-c3cccc(NS(=O)(=O)c4cc(Cl)cnc4NC4CC4)c3F)c(NC)nc2n1 [Example 137]          IC50       ≤ 100 nM
2  CNc1nc2nc(NC(C)=O)ncc2cc1-c1cc(F)cc(NS(=O)(=O)c2cc(Cl)cnc2OC)c1 [Example 164]          IC50  100 to 500 nM
3  CNc1ncc2cc(-c3cccc(NS(=O)(=O)c4cc(Cl)c(OC)cc4Cl)c3F)c(NC)nc2n1 [Example 132]          IC50       ≤ 100 nM
4  CNc1cc2nc(C)c(-c3ccc(F)c(NS(=O)(=O)c4cc(Cl)cc(CO)c4Cl)c3)cc2cn1 [Example 19]          IC50  100 to 500 nM

----------
Target: GCN2 kinase (Homo sapiens (Human), UniProt Q9P2K8)
Sequence (Q9P2K8 whole entry): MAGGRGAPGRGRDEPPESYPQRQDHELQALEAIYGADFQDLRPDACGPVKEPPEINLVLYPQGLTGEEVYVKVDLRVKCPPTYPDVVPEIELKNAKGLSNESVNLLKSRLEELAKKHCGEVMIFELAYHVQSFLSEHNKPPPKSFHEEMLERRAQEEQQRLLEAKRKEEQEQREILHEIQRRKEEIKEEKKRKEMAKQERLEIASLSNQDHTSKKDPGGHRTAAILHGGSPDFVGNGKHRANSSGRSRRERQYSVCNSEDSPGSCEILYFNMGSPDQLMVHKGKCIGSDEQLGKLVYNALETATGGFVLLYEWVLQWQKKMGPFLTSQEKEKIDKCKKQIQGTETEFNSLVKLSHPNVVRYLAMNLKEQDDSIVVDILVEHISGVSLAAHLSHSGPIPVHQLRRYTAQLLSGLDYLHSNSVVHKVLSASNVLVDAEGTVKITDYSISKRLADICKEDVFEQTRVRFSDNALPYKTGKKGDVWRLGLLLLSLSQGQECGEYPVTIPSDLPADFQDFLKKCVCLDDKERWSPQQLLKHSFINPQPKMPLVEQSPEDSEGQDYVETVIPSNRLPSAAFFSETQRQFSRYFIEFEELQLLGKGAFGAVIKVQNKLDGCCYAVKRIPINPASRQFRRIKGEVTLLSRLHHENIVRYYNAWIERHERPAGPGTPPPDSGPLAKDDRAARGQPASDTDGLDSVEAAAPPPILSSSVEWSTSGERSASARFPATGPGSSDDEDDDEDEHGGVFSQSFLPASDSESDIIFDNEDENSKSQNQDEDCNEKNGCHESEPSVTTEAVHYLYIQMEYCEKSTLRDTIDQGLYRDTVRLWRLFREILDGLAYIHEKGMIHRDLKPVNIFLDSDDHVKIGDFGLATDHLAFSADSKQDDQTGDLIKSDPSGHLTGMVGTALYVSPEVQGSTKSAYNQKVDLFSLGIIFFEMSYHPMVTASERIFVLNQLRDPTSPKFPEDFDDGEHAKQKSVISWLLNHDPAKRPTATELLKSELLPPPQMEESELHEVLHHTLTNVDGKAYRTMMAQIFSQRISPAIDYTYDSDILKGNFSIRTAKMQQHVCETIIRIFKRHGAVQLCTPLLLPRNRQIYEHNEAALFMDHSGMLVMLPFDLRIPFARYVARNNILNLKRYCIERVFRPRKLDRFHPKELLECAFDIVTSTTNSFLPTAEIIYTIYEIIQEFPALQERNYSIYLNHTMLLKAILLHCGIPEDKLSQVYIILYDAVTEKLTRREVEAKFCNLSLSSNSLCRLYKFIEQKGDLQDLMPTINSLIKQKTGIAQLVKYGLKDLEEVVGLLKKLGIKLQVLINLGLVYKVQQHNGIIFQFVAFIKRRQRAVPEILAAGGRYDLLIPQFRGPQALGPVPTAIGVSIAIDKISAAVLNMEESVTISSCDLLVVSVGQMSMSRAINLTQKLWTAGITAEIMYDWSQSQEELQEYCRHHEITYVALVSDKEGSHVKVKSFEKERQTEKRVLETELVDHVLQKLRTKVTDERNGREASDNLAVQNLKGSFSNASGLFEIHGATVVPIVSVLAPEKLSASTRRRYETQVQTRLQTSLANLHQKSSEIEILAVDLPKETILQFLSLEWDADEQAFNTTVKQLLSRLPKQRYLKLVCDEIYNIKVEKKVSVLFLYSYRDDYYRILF
quantityKind: IC50

> print(dat)
                                querysmiles        assayvalue
1  CNc1cc2nc(C)c(-c3ccc(F)c(NS(=O)(=O)c4cc(Cl)cnc4OC)c3)cc2cn1    500 to 1000 nM
2  CNc1ncc2cc(-c3cccc(NS(=O)(=O)c4cc(C#N)ccc4OC)c3F)c(NC)nc2n1     100 to 500 nM
3  CNc1ncc2cc(-c3cc(F)cc(NS(=O)(=O)c4cc(Cl)cnc4OC)c3)ccc2n1  1000 to 10000 nM
4  CNc1ncc2cc(-c3cccc(NS(=O)(=O)c4cc(C#N)cnc4OC)c3F)c(NC)nc2n1     100 to 500 nM

----------
Molecular target: GCN2 kinase (Homo sapiens (Human), UniProt Q9P2K8)
pIC50: −log10 of the molar value.
quantityKind: pIC50

> print(dat)
                                   compound  quantitykind    assayvalue
1  CNc1ncc2cc(-c3cccc(NS(=O)(=O)c4cc(Cl)cnc4OC)c3)c(C)nc2n1 [Example 47]         pIC50        ≥ 7.00
2  CNc1ncc2cc(-c3cc(NS(=O)(=O)c4cncc(Cl)c4)c(F)cc3C)c(C)nc2n1 [Example 42]         pIC50  5.00 to 6.00
3  CNc1ncc2cc(-c3cc(F)cc(NS(=O)(=O)c4cc(Cl)cnc4OC)c3)c(N)nc2n1 [Example 63]         pIC50        ≥ 7.00
4  CNc1ncc2cc(-c3cccc(NS(=O)(=O)c4cc(Cl)c(C)cc4OC)c3F)c(NC)nc2n1 [Example 157]         pIC50        ≥ 7.00

----------
Molecular target: PERK kinase (Homo sapiens (Human), UniProt Q9NZJ5)
Sequence (Q9NZJ5 other isoform, or with tags, fused parts or gaps): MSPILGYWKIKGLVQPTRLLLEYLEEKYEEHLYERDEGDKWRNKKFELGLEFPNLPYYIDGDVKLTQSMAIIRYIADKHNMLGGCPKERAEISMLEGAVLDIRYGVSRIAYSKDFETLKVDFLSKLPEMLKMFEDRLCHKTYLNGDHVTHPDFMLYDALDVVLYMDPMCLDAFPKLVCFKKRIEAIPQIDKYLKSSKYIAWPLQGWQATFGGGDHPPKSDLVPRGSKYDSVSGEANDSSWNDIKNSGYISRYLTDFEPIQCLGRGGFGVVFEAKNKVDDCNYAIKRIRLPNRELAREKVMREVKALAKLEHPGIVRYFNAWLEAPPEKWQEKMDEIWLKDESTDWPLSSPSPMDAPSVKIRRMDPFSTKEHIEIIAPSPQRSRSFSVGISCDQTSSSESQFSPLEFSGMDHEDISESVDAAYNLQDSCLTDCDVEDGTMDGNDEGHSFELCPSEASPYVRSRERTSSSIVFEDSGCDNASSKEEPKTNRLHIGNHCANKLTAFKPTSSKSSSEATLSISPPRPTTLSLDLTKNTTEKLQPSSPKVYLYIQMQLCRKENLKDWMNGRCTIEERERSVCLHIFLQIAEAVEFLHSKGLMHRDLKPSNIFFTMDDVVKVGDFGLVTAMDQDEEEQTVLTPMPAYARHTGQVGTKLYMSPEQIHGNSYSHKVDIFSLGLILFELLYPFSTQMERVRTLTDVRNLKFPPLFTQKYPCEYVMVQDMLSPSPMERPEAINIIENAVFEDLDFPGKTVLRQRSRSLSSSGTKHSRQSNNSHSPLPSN
quantityKind: IC50

> print(dat)
                                querysmiles     assayvalue
1  CNc1ncc2cc(-c3cc(NS(=O)(=O)c4cc(Cl)cnc4OC)ccc3F)c(C)nc2n1  100 to 500 nM
2  COc1ncc(Cl)cc1S(=O)(=O)Nc1cccc(-c2ccc3nc(N)ncc3c2)c1F       ≤ 100 nM
3  CNc1ncc2cc(-c3cccc(NS(=O)(=O)c4cc(Cl)cnc4OC)c3)c(N)nc2n1  100 to 500 nM
4  CNc1ncc2cc(-c3cc(NS(=O)(=O)c4cc(Cl)cnc4OC)ccc3C)c(C)nc2n1  100 to 500 nM
5  CNc1ncc2cc(-c3cccc(NS(=O)(=O)c4cccc(CO)c4Cl)c3F)c(NC)nc2n1  100 to 500 nM
6  CNc1ncc2cc(-c3cc(NS(=O)(=O)c4cc(Cl)cnc4OC)c(F)cc3C)c(C)nc2n1  100 to 500 nM
7  CNc1ncc2cc(-c3cccc(NS(=O)(=O)c4cc(Cl)cc(CO)c4Cl)c3F)c(NC)nc2n1       ≤ 100 nM
8  CNc1ncc2cc(-c3cccc(NS(=O)(=O)c4ccc(Cl)cc4OC)c3F)c(NC)nc2n1  100 to 500 nM

----------
Catalogue of IC50 readings, one per entry.
Test system: ATF4 in CCRF-CEM leukemia cells (PERK)
Assay: CCRF-CEM TG ATF4 ELISA, phenotypic assay for cellular inhibition of PERK preactivated by thapsigargin
Assay type: cell-based
Conditions: Homo sapiens; Thapsigargin (1 μM) stimulated CCRF-CEM cells
Procedure: CCRF-CEM leukemia cells (catalog #CCL-116) were obtained from the American Type Culture Collection (ATTC, Manassas, VA). […] Cells were lysed then ATF4 levels were measured using an ELISA assay (Proteintech, Rosemont, IL). Absorbance was measured at 450 nm and 544 nM using a Synergy2 or equivalent reader (Biotek, Winooski VT). Data was analyzed using PRISM software (Graphpad, San Diego, CA) to calculate IC50 values.
quantityKind: IC50

> print(dat)
                                 querysmiles     assayvalue
 1  CNc1ncc2cc(-c3cc(NS(=O)(=O)c4cc(Cl)cnc4OC)ccc3C)cnc2n1     1 to 10 µM
 2  CNc1cc2nc(C)c(-c3cc(NS(=O)(=O)c4cc(Cl)cnc4OC)cc(F)c3F)cc2cn1     1 to 10 µM
 3  CNc1ncc2cc(-c3cc(F)cc(NS(=O)(=O)c4cc(Cl)cnc4OC)c3)c(N)nc2n1     1 to 10 µM
 4  CNc1ncc2cc(-c3cc(F)cc(NS(=O)(=O)c4cc(Cl)cnc4OC)c3)c(C)nc2n1     1 to 10 µM
 5  CNc1cc2nc(C)c(-c3cccc(NS(=O)(=O)c4cc(Cl)cnc4NC)c3F)cc2cn1    0.5 to 1 µM
 6  CNc1ncc2cc(-c3cccc(NS(=O)(=O)c4cc(Cl)cnc4NC)c3F)ccc2n1     1 to 10 µM
 7  CNc1ncc2cc(-c3cccc(NS(=O)(=O)c4cc(Cl)cnc4OC)c3F)c(NCCO)nc2n1     1 to 10 µM
 8  CNc1ncc2cc(-c3cccc(NS(=O)(=O)c4cc(Cl)c(OC)cc4Cl)c3F)c(NC)nc2n1    0.5 to 1 µM
 9  CNc1ncc2cc(-c3cccc(NS(=O)(=O)c4cc(Cl)cnc4OC)c3Cl)c(C)nc2n1     1 to 10 µM
10  CNc1ncc2cc(-c3cccc(NS(=O)(=O)c4cc(Cl)cnc4NC4CC4)c3F)c(NC)nc2n1     1 to 10 µM
11  CCNc1ncc2cc(-c3cccc(NS(=O)(=O)c4cc(Cl)cnc4OC)c3F)c(NC)nc2n1     1 to 10 µM
12  COc1nc2nc(N)ncc2cc1-c1ccnc(NS(=O)(=O)c2cc(Cl)cnc2OC)c1F     1 to 10 µM
13  CNc1nc2nc(N)ncc2cc1-c1cc(F)cc(NS(=O)(=O)c2cc(Cl)cnc2OC)c1     1 to 10 µM
14  CNc1ncc2cc(-c3cccc(NS(=O)(=O)c4cc(Cl)cc(C(C)(C)O)c4Cl)c3F)c(NC)nc2n1     1 to 10 µM
15  CNc1ncc2cc(-c3cccc(NS(=O)(=O)c4cc(Cl)ccc4OC)c3F)c(NC)nc2n1     1 to 10 µM
16  Cc1nc2cc(N)ncc2cc1-c1cccc(NS(=O)(=O)c2cc(Cl)cc(CO)c2Cl)c1F       ≤ 0.1 µM
17  CNc1cc2nc(C)c(-c3ccc(F)c(NS(=O)(=O)c4cc(Cl)cc(CO)c4Cl)c3)cc2cn1     1 to 10 µM
18  CNc1ncc2cc(-c3cccc(NS(=O)(=O)c4cc(Cl)cnc4OC)c3C#N)c(C)nc2n1     1 to 10 µM
19  COc1ncc(Cl)cc1S(=O)(=O)Nc1cccc(-c2cc3cnc(N)cc3nc2C)c1F  0.1 to 0.5 µM
20  CNc1ncc2cc(-c3ccnc(NS(=O)(=O)c4cc(Cl)cnc4OC)c3F)c(OC)nc2n1     1 to 10 µM
21  CNc1ncc2cc(-c3cccc(NS(=O)(=O)c4cc(Cl)cnc4OC)c3F)c(N)nc2n1  0.1 to 0.5 µM
22  CNc1nc2nc(Nc3cnn(C)c3)ncc2cc1-c1cccc(NS(=O)(=O)c2cc(Cl)cnc2OC)c1F  0.1 to 0.5 µM
23  CNc1ncc2cc(-c3c(F)ccc(NS(=O)(=O)c4cc(Cl)cnc4OC)c3F)c(C)nc2n1     1 to 10 µM
24  CNc1ncc2cc(-c3cccc(NS(=O)(=O)c4cccc(CO)c4Cl)c3F)c(NC)nc2n1  0.1 to 0.5 µM
25  CNc1ncc2cc(-c3cccc(NS(=O)(=O)c4cc(F)cc(CO)c4F)c3F)c(NC)nc2n1     1 to 10 µM
26  CNc1ncc2cc(-c3cccc(NS(=O)(=O)c4cc(Cl)cnc4OC)c3OC)c(C)nc2n1     1 to 10 µM
27  CNc1cc2nc(C)c(-c3cccc(NS(=O)(=O)c4cc(Cl)cc(CO)c4Cl)c3F)cc2cn1  0.1 to 0.5 µM
28  CNc1cc2nc(C)c(-c3cccc(NS(=O)(=O)c4cc(Cl)cnc4OC)c3F)cc2cn1     1 to 10 µM
29  CNc1ncc2cc(-c3cc(F)cc(NS(=O)(=O)c4cc(Cl)cc(CO)c4Cl)c3)c(NC)nc2n1     1 to 10 µM
30  CNc1ncc2cc(-c3cccc(NS(=O)(=O)c4cc(Cl)cc(CO)c4OC)c3F)c(NC)nc2n1  0.1 to 0.5 µM
31  CNc1cc2nc(C)c(-c3cc(NS(=O)(=O)c4cc(Cl)cnc4OC)ccc3F)cc2cn1     1 to 10 µM
